assay: collision cross section in nitrogen (drift tube, single-field); higher = larger gas-phase ion size; conditions: ion type: [M+H]; ion source: APCI; ion mode: Positive;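 further: chemical standards at 10 µM analysed by drift tube IMS-QTOF MS in about 3.95 torr nitrogen, mean of duplicate injections differing ≤1%, mass error below 10 ppm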
Structures can show the parent of a compound that is named as a salt.

compound: COc1cc2ncnc(Nc3cccc(Cl)c3)c2cc1OC
units of measure: Å²
collision cross section in nitrogen: 177.3
--
compound: Cc1ccc(C2OC[C@@H]3OC(c4ccc(C)cc4)O[C@H]([C@H](O)CO)[C@@H]3O2)cc1 (some centres not stated)
units of measure: Å²
collision cross section in nitrogen: 191.5
--
compound: Oc1ccncc1
units of measure: Å²
collision cross section in nitrogen: 116
--
compound: CC(C)C(C(=O)OC(C#N)c1cccc(Oc2ccccc2)c1)c1ccc(OC(F)F)cc1 (configuration not stated) [Flucythrinate]
units of measure: Å²
collision cross section in nitrogen: 214.8
--
compound: CNCCCC12CCC(c3ccccc31)c1ccccc12 [Maprotiline hydrochloride]
units of measure: Å²
collision cross section in nitrogen: 164.1
--
compound: CCCCC(CC)COC(=O)c1ccc(N(C)C)cc1 (configuration not stated)
units of measure: Å²
collision cross section in nitrogen: 185.9
--
compound: Cc1oc(C)c(C(=O)Nc2ccccc2)c1C
units of measure: Å²
collision cross section in nitrogen: 152.5
--
compound: CCc1c(C(=O)NN2CCCCC2)nn(-c2ccc(Cl)cc2Cl)c1-c1ccc(Br)cc1
units of measure: Å²
collision cross section in nitrogen: 224.8
--
compound: CN(C)C(=O)NC1(c2ccccc2)CCN(CCC[C@]2(c3ccc(Cl)c(Cl)c3)CCCN(C(=O)c3ccccc3)C2)CC1
units of measure: Å²
collision cross section in nitrogen: 252.9
--
compound: Cc1nc(N(C)C)nc(OC(=O)N(C)C)c1C
units of measure: Å²
collision cross section in nitrogen: 152
--
compound: Cc1cc(-c2ccc(N)c(C)c2)ccc1N [3,3'-Dimethylbenzidine dihydrochloride]
units of measure: Å²
collision cross section in nitrogen: 151.9
--
compound: CC(COc1ccc(Oc2ccccc2)cc1)Oc1ccccn1 (configuration not stated)
units of measure: Å²
collision cross section in nitrogen: 184.3
--
compound: CCOc1ccc(NC(=O)CC(C)=O)cc1 [N-(4-Ethoxyphenyl)-3-oxobutanamide]
units of measure: Å²
collision cross section in nitrogen: 154.6
--
compound: Cn1cc[nH]c1=S
units of measure: Å²
collision cross section in nitrogen: 116.9
--
compound: CCN(CCN)c1cccc(C)c1
units of measure: Å²
collision cross section in nitrogen: 139.5
--
compound: OCCOCCN1CCN(C(c2ccccc2)c2ccc(Cl)cc2)CC1 (configuration not stated) [Hydroxyzine hydrochloride]
units of measure: Å²
collision cross section in nitrogen: 197.7
--
compound: COC(=O)Nc1nc2cc(Sc3ccccc3)ccc2[nH]1
units of measure: Å²
collision cross section in nitrogen: 175
--
compound: CN1[C@@H]2C[C@@H](OC(=O)[C@H](CO)c3ccccc3)C[C@H]1[C@@H]1O[C@@H]12 [Scopolamine hydrochloride]
units of measure: Å²
collision cross section in nitrogen: 172.2
--
compound: Cc1cc2c3c(c1)C(c1ccccc1)=N[C@@H](NC(=O)c1ccncc1)C(=O)N3CC2
units of measure: Å²
collision cross section in nitrogen: 201.9
--
compound: O=C(O)C(=O)Cc1c[nH]c2ccccc12
units of measure: Å²
collision cross section in nitrogen: 139.3
--
compound: CCOC(=O)OC1=C(c2cc(C)ccc2C)C(=O)N[C@]12CC[C@@H](OC)CC2
units of measure: Å²
collision cross section in nitrogen: 190.2
--
compound: CC#Cc1cc(C)nc(Nc2ccccc2)n1
units of measure: Å²
collision cross section in nitrogen: 152.6
--
compound: CC(C)(C)CC(C)(C)c1ccc(O)c(-n2nc3ccccc3n2)c1
units of measure: Å²
collision cross section in nitrogen: 186.3
--
compound: COc1cc(OC)c(C(=O)CCCN2CCCC2)c(OC)c1 [Buflomedil hydrochloride]
units of measure: Å²
collision cross section in nitrogen: 176
--
compound: CN(C)CCC(c1ccc(Cl)cc1)c1ccccn1 (configuration not stated) [Chlorpheniramine maleate]
units of measure: Å²
collision cross section in nitrogen: 164
--
compound: CCc1nc(C)c[nH]1
units of measure: Å²
collision cross section in nitrogen: 120.3
--
compound: C=C(C)C(=O)OCCOCCOCCOCCOC(=O)C(=C)C [Tetraethyleneglycol dimethacrylate]
units of measure: Å²
collision cross section in nitrogen: 171.2

* * *

experiment: collision cross section in nitrogen (drift tube, single-field); higher = larger gas-phase ion size; conditions: ion type: [M+H]; ion source: ESI; ion mode: Positive
Catalogue of collision cross section in nitrogen readings, one per entry.

compound: CC(O)CN(CCN(CC(C)O)CC(C)O)CC(C)O (centres undefined) [1,1′,1′′,1′′′-(Ethylenedinitrilo)tetrakis(2-propanol)]
collision cross section in nitrogen: 166.8 Å²
--
compound: O=C1OC2(c3ccc(O)cc3Oc3cc(O)ccc32)c2ccccc21 [Fluorescein sodium]
collision cross section in nitrogen: 173.8 Å²
--
compound: CS(=O)(=O)c1ccc([C@@H](CC2CCCC2)C(=O)Nc2cnccn2)cc1Cl
collision cross section in nitrogen: 205.5 Å²
--
compound: O=[N+]([O-])/N=C1\NCCN1Cc1ccc(Cl)nc1 [Imidacloprid]
collision cross section in nitrogen: 156 Å²

* * *

assay: collision cross section in nitrogen (drift tube, single-field); higher = larger gas-phase ion size; settings: ion type: [M+H]; ion source: ESI; ion mode: Positive
Structures can show the parent of a compound that is named as a salt.
Catalogue of collision cross section in nitrogen readings, one per entry.
property name: collision cross section in nitrogen (Å²)

compound: CC1CN(c2cc3c(cc2F)c(=O)c(C(=O)O)cn3-c2ccc(F)cc2F)CCN1 (stereo not given)
property name: collision cross section in nitrogen
endpoint value: 193
--
compound: Cc1cc(-c2ccc(N)c(C)c2)ccc1N [3,3'-Dimethylbenzidine dihydrochloride]
property name: collision cross section in nitrogen
endpoint value: 166.2
--
compound: c1ccc([C@H]2CN3CCSC3=N2)cc1 [Levamisole hydrochloride]
property name: collision cross section in nitrogen
endpoint value: 144.8
--
compound: CCCN(C1CCN(C(=O)C2CCNCC2)CC1)[C@@H]1CCc2ccc(OC)cc2C1
property name: collision cross section in nitrogen
endpoint value: 199.1
--
compound: OC(c1ccc(Cl)cc1)(c1ccc(Cl)cc1)c1cccnc1
property name: collision cross section in nitrogen
endpoint value: 183.1
--
compound: CN(C)C(=O)Nc1cccc(C(F)(F)F)c1
property name: collision cross section in nitrogen
endpoint value: 150.1
--
compound: CC[C@H]1CC[C@H](NCc2cc3c(cc2OC)[C@H]2C[C@H]2C(=O)N3C)[C@H](c2ccccc2)N1
property name: collision cross section in nitrogen
endpoint value: 208.2
--
compound: CCN(CC)C(=O)C(C)Oc1cccc2ccccc12 (stereo not given) [Napropamide]
property name: collision cross section in nitrogen
endpoint value: 164.2
--
compound: COc1cccc2c1C(=O)c1c(O)c3c(c(O)c1C2=O)C[C@@](O)(C(=O)CO)C[C@@H]3O[C@H]1C[C@H](N)[C@H](O)[C@H](C)O1 [Doxorubicin hydrochloride]
property name: collision cross section in nitrogen
endpoint value: 230
--
compound: CC1(C)[C@@H](O[C@H]2O[C@H](C(=O)O)[C@@H](O)[C@H](O)[C@H]2O[C@@H]2O[C@H](C(=O)O)[C@@H](O)[C@H](O)[C@H]2O)CC[C@]2(C)[C@H]3C(=O)C=C4[C@@H]5C[C@@](C)(C(=O)O)CC[C@]5(C)CC[C@@]4(C)[C@]3(C)CC[C@@H]12 [Ammonium glycyrrhizinate trihydrate]
property name: collision cross section in nitrogen
endpoint value: 286.8
--
compound: CCN(Cc1cccnc1)C(=O)c1cccc(Cl)c1[C@]1(C)C(=O)N(Cc2ccc(OC)cc2OC)c2ccc(Cl)cc21
property name: collision cross section in nitrogen
endpoint value: 241.2
--
compound: CC(C)(c1ccccc1)c1ccc(O)c(C(C)(C)c2ccccc2)c1
property name: collision cross section in nitrogen
endpoint value: 171.9
--
compound: C=CCc1cc(S(=O)(=O)c2ccc(O)c(CC=C)c2)ccc1O [4,4'-Sulfonylbis[2-(prop-2-en-1-yl)phenol]]
property name: collision cross section in nitrogen
endpoint value: 182.5
--
compound: CCOC(=O)OC1=C(c2cc(C)ccc2C)C(=O)N[C@]12CC[C@@H](OC)CC2
property name: collision cross section in nitrogen
endpoint value: 189.3
--
compound: O=P(c1ccccc1)(c1ccccc1)c1ccccc1 [Triphenylphosphine oxide]
property name: collision cross section in nitrogen
endpoint value: 162.9
--
compound: CCCCCCCCCCOC(=O)c1ccccc1C(=O)OCCCCCCCC [Octyl decyl phthalate]
property name: collision cross section in nitrogen
endpoint value: 222.5
--
compound: CCCN(CC)CC1COC2(CCC(C(C)(C)C)CC2)O1 (stereo not given)
property name: collision cross section in nitrogen
endpoint value: 176.6
--
compound: O=C(NCc1ncc(C(F)(F)F)cc1Cl)c1c(Cl)cccc1Cl [Fluopicolide]
property name: collision cross section in nitrogen
endpoint value: 175.4
--
compound: Cc1ccnc(N)c1
property name: collision cross section in nitrogen
endpoint value: 119.5
--
compound: NCCCOCCOCCOCCCN [3,3'-[Oxybis(ethane-2,1-diyloxy)]dipropan-1-amine]
property name: collision cross section in nitrogen
endpoint value: 148.3
--
compound: CCCCCCCC(=O)N(C)C [N,N-Dimethyloctanamide]
property name: collision cross section in nitrogen
endpoint value: 146.8
--
compound: CCc1c(C)cc(N)c(CC)c1N
property name: collision cross section in nitrogen
endpoint value: 141.3
--
compound: c1cnc2c(c1)ccc1cccnc12
property name: collision cross section in nitrogen
endpoint value: 132.4
--
compound: OCCCc1cccnc1
property name: collision cross section in nitrogen
endpoint value: 128.4
--
compound: CCCCCCCCCC[N+](C)(C)[O-] [N,N-Dimethyldecylamine oxide]
property name: collision cross section in nitrogen
endpoint value: 164.1
